Biological target: T1, human NMI (N-myc Interacting protein), recombinant protein (human, UniProt Q13287 1-307, limits assumed)
T1 construct: Gene ID: 9111; also called hNMI; antigen
T1 sequence (looked up): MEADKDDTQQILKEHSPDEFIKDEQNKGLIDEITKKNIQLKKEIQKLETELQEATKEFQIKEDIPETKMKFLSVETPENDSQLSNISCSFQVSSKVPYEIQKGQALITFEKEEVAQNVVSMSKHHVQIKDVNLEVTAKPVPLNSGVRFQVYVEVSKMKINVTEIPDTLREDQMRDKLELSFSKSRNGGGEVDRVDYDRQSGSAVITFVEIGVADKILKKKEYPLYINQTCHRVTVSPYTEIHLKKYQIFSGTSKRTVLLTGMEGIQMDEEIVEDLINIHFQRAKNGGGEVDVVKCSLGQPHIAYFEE
Test: ELISA, binding to hNMI
# EC50 per entry
Answer in µg/mL, number only, no unit symbol.

Some binders with recorded EC50:
98G10-H-9 (antibody, V domains shown, also called 98G10 W34H, Y112L (VH)) VH: QEQLEESGGDLVKPEGSLTLTCTASGFSFSASYHICWVRQAPGKGLEWIACIYGGSSGSAYYASWAKGRFTISKTSSTTVTLQMTSLTAADTATYFCARAGYYNYGSAGDILPSSFKLWGPGTLVTVSS VL: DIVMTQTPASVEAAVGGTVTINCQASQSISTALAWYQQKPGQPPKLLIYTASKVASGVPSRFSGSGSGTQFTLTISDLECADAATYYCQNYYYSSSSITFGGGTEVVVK; 0.311
98G10-H-4 (antibody, V domains shown, also called 98G10 Y112S (VH)) VH: QEQLEESGGDLVKPEGSLTLTCTASGFSFSASYWICWVRQAPGKGLEWIACIYGGSSGSAYYASWAKGRFTISKTSSTTVTLQMTSLTAADTATYFCARAGYYNYGSAGDISPSSFKLWGPGTLVTVSS VL: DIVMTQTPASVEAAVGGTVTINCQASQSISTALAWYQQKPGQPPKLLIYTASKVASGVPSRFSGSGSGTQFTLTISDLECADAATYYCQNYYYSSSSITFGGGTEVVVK; 0.082

Query (binder): 98G10-H-10 (antibody, V domains shown, also called 98G10 W34T, Y112R (VH)) VH: QEQLEESGGDLVKPEGSLTLTCTASGFSFSASYTICWVRQAPGKGLEWIACIYGGSSGSAYYASWAKGRFTISKTSSTTVTLQMTSLTAADTATYFCARAGYYNYGSAGDIRPSSFKLWGPGTLVTVSS VL: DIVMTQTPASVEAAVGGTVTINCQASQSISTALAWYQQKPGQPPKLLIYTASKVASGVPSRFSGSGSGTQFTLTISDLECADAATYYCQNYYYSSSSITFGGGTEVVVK ; field requested: EC50
1.86
